System: CEM cells HIV-1 protection, formazan growth assay
Experiment: NCI AIDS Antiviral Assay
Conditions: measured here: growth of uninfected CEM cells
pIC50: −log10 of the molar value.
Classification field: enter TRUE for pIC50 values not below 5, FALSE for values below it.

compound	qualitative label
Nc1nc(=O)n(C2CCC(CO)O2)cc1F (configuration not stated)	FALSE
CO[C@H](/C(C)=C/C=C/C(C)=C/c1coc(C)n1)[C@H](C)[C@H]1C[C@@H](O)[C@@]2(C)O[C@H]2/C=C/[C@@H](C)[C@@H]2C[C@@H](CC(=O)O2)C[C@H]2O[C@@H]2C(=O)O1	TRUE
C=CCOC(=O)CC[N+]1=CCC(c2ccccc2)(c2ccccc2)O1	FALSE
COC1OC2COc3ccccc3OC2C(NC#N)C1OC (configuration not stated)	FALSE
CC(=O)OCC1OC(Nc2nncs2)C(OC(C)=O)C1OC(C)=O (configuration not stated)	FALSE
S=c1nc(COc2ccc(Cl)cc2)[nH][nH]1	FALSE
CNc1ccc(/C=C/c2ccnc3ccccc23)cc1	TRUE
COc1cccc(NC(=O)CC(=O)N2N=C(N(CCC#N)c3ccc(Cl)cc3)CC2c2ccccc2)c1 (configuration not stated)	FALSE

Answer whether pIC50 of CC1=CC(=O)C(C(O)(C(F)(F)F)C(F)(F)F)C(C)(C)C1 (configuration not stated) is greater than or equal to 5.
FALSE

Dear colleague, could you confirm whether Cc1ccc(C(=O)Nc2ccc(CP(=O)(O)O)cc2)cc1NC(=O)c1cccc(N)c1 has pIC50 at or above 5?
FALSE
